Just for reference, paper PMC12612990 is where these values come from.

Assay: Toxicokinetics of PNA5 in Beagle dog plasma
Details: both, Beagle, dog, plasma, sc, 20 mg/kg/day, Tmax, dogs, plasma, s.c. 20 mg/kg/day, day 1, sexes combined, table: average (range); text b115: median
Peptide text beside a SMILES is read from it. * marks the point of attachment. βGlc = OC[C@H]1O[C@@H](*)[C@H](O)[C@@H](O)[C@@H]1O
experimental readout: Tmax (min)

INSERT INTO measurements (compound, result) VALUES
  ('CC[C@H](C)[C@H](NC(=O)[C@H](Cc1ccc(O)cc1)NC(=O)[C@@H](NC(=O)[C@H](CCCNC(=N)N)NC(=O)[C@@H](N)CC(=O)O)C(C)C)C(=O)N[C@@H](Cc1c[nH]cn1)C(=O)N[C@@H](CO[C@@H]1O[C@H](CO)[C@@H](O)[C@H](O)[C@H]1O)C(N)=O [PNA5, Ang-1–6-Ser-O-Glu-NH2] (H-DRVYIHS(βGlc)-NH2)', 15);
